tested on: Gastric Acid Secretion; assay: Histamine-stimulated gastric acid secretion in Heidenhain pouch dogs; format: in vivo, beagle dogs; settings: histamine s.c. 1 hour after drug administration
measured endpoint: Gastric Acid Secretion Inhibitory Rate (%) Pouch Dog 3 mg/kg p.o.
Give the number; % is assumed, so skip it.

Query: For CCCCCOc1cccn2c(CC#N)c(C)nc12 , what is its reported Gastric Acid Secretion Inhibitory Rate (%) Pouch Dog 3 mg/kg p.o.?
Response: 61

Query: For Cc1nc2c(OCC3CCCCC3)cccn2c1CC#N , what is its reported Gastric Acid Secretion Inhibitory Rate (%) Pouch Dog 3 mg/kg p.o.?
Response: 67

Query: For C=CCOc1cccn2c(CC#N)c(C)nc12 [Known compound B, reference compound] , what is its reported Gastric Acid Secretion Inhibitory Rate (%) Pouch Dog 3 mg/kg p.o.?
Response: 21

Query: For CC(C)=CCOc1cccn2c(CC#N)c(C)nc12 , what is its reported Gastric Acid Secretion Inhibitory Rate (%) Pouch Dog 3 mg/kg p.o.?
Response: 82

Query: For Cc1nc2c(OCc3ccccc3)cccn2c1CC#N [Known compound A, reference compound] , what is its reported Gastric Acid Secretion Inhibitory Rate (%) Pouch Dog 3 mg/kg p.o.?
Response: 36
